Value source: patent US9482924B2

# TEST NAME: Absorption maximum wavelength, absorbance and absorption coefficient of colored solution
# Format: physicochemical
# RECORDED CONDITIONS: n-hexane colored solution
Absorption maximum wavelength [λmax] reference
Write the answer as a number in nm, unit excluded.

Study these solved cases before continuing.
>>> value("CCCCCCCCN(CCCCCCCC)c1ccc(N=C2C(C(C)(C)C)=Nn3nc(-c4ccccc4)nc32)c(C)c1")
518
>>> value("CCCCCCCCN1N=C(C(C)(C)C)C(=Nc2ccc(N(CC)CC)cc2C)C1=O")
502

Given the molecule `CCCCCCOc1cc(N(CCCCCC)CCCCCC)ccc1N=C1C(C#N)=Nn2nc(C(C)(C)C)nc21` , what is its reported Absorption maximum wavelength [λmax]?
550

Proceed to `CCCCCCCCN(CCCCCCCC)c1ccc(N=C2C(=O)N(c3ccccc3)N=C2C)c(C)c1`
500

Proceed to `CCCCCCN(CCCCCC)c1ccc(N=C2C=C(C(=O)Nc3ccccc3)C(=O)c3ccccc32)c(C)c1`
635

###

# TEST NAME: Solubility in n-hexane
# RECORDED CONDITIONS: in n-hexane at 25° C. and 0.1 MPa
ENDPOINT NAME: Solubility (% by mass)
Write the answer as a number in % by mass, unit excluded.

Study these solved cases before continuing.
>>> value("CCCCCCOc1cc(N(CCCCCC)CCCCCC)ccc1N=C1C(C#N)=Nn2nc(C(C)(C)C)nc21 [Pigment D-56]")
3.5
>>> value("CCCCCCCCN1CCc2cc(/N=C3/C(C)=Nn4nc(C(C)CNC(=O)C(CCCCCC)Oc5ccc(C(C)(C)CC)cc5C(C)(C)CC)nc43)ccc21 [Pigment D-57]")
12.3

Alright, here's another compound for you.
Given the compound CCCCCCCCN(CCCCCCCC)c1ccc(N=C2C(C(C)(C)C)=Nn3nc(-c4ccccc4)nc32)c(C)c1 [Pigment D-49] , what is its reported Solubility (% by mass)?
11

###

# TEST NAME: Absorption maximum wavelength, absorbance and absorption coefficient of colored solution
# Assay type: physicochemical
# RECORDED CONDITIONS: n-hexane colored solution; calculated in accordance with the Lambert-Beer law
ENDPOINT NAME: Absorption coefficient (ε)

>>> value("CCCCCCCCN1CCc2cc(/N=C3/C(C)=Nn4nc(C(C)CNC(=O)C(CCCCCC)Oc5ccc(C(C)(C)CC)cc5C(C)(C)CC)nc43)ccc21 [Pigment D-57]")
"7.55 × 10^4"
>>> value("CCCCCCCCOc1cc(N(CCCC)CCCC)ccc1N=C1C(=O)ON=C1c1ccccc1 [Pigment D-20]")
"4.80 × 10^4"
>>> value("CCCCCCN(CCCCCC)c1cc(C)c(N=C2C(C#N)=C(C(=O)OC3C(C(C)(C)C)CC(C)CC3C(C)(C)C)c3nc(C(C)(C)C)nn32)c(C)c1 [Pigment D-65]")
"6.8 × 10^4"
>>> value("CCCCCCCCCCCCCCCCNC(=O)C1=CC(=Nc2ccc(N(CC)CC)cc2CC)c2ccccc2C1=O [Pigment D-38]")
"2.9 × 10^4"
>>> value("CCCCCCCCNC(=O)C1=CC(=Nc2ccc(N(CCCCCCCC)CCCCCCCC)cc2)C=C(C)C1=O [Pigment D-26]")
"2.8 × 10^4"

Given the molecule CCCCCCN(CCCCCC)c1ccc(N=C2C=C(C(=O)Nc3ccccc3)C(=O)c3ccccc32)c(C)c1 [Pigment D-46] , what is its reported Absorption coefficient (ε)?
2.8 × 10^4

Proceed to CCCCCCOc1cc(N(CCCCCC)CCCCCC)ccc1N=C1C(C#N)=Nn2nc(C(C)(C)C)nc21 [Pigment D-56]
7.2 × 10^4

Proceed to CCCCCCCCN(CCCCCCCC)c1ccc(N=C2C(=O)N(c3ccccc3)N=C2C)c(C)c1 [Pigment D-1]
6.05 × 10^4

Proceed to CCCCCCN(CCCCCC)c1ccc(N=C2C(=O)N(c3ccccc3)N=C2C(C)(C)C)c(C)c1 [Pigment D-11]
5.60 × 10^4

Proceed to CCCCCCCCCCCCCCCCCCNC(=O)C1=CC(=Nc2ccc(N(CC)CC)cc2OC)c2ccccc2C1=O [Pigment D-43]
2.6 × 10^4

Proceed to CCCCCCCCN(CCCCCCCC)c1ccc(N=C2C(C(C)(C)C)=Nn3nc(-c4ccccc4)nc32)c(C)c1 [Pigment D-49]
7.2 × 10^4

Proceed to CCCCCCCCN1N=C(C(C)(C)C)C(=Nc2ccc(N(CC)CC)cc2C)C1=O [Pigment D-5]
5.20 × 10^4
